- System: stress-induced fecal output
- experiment_notes: Psychological stress-induced (water avoidance) IBS model, SC administration
- Type: in vivo
- details: 2.3 μmol/kg SC, stress 30 min post drug, 6-h collection
parameter_measured: Stool Output

query: Query (molecule): CCNCCCN[C@H]1CC[C@H](NCCCNCC)CC1 [Compound 12] ; field requested: Stool Output
result: 0 ± 0 number of fecal pellets

query: Name the reported Stool Output value associated with the molecule CCNCCCCCNCCCCNCCCCCNCC [Compound 14]
result: 13.2 ± 6.3 number of fecal pellets

query: Could you tell me which Stool Output is on file for CCCCNCCCNCCCCNCCCNCCCC [Compound 5] ?
result: 14.0 ± 4.8 number of fecal pellets

query: Value lookup for Stool Output; key = c1ccc(CNCCCNCCCCNCCCNCc2ccccc2)cc1 [Compound 10]
result: 12.6 ± 4.8 number of fecal pellets

query: Which measured Stool Output value corresponds to CC(C)CCNCCCNCCCCNCCCNCCC(C)C [Compound 9] ?
result: 18.2 ± 2.8 number of fecal pellets

query: What value of Stool Output has been recorded for this entry: CC(C)CNCCCNCCCCNCCCN [Compound 8]
result: 14.8 ± 3.8 number of fecal pellets

query: Would you kindly share the measured Stool Output for CCCNCCCNCCCCNCCCNCCC [Compound 4] ?
result: 11.4 ± 7.2 number of fecal pellets

query: Stool Output lookup needed for CC(C)CNCCCNCCCCNCCCNCC(C)C [Compound 7] , thanks.
result: 15.9 ± 5.7 number of fecal pellets

query: // query Stool Output value for entry CC(C)NCCCNCCCNCCCNC(C)C [Compound 2]
result: 17.6 ± 5.5 number of fecal pellets

query: Would you mind telling me what Stool Output value was observed for CCNCCCNCCCNCCCNCC [Compound 1, N^1,N^11-diethylnorspermine] ?
result: 17.4 ± 5.1 number of fecal pellets

query: Could you share which Stool Output value was measured for FC(F)(F)c1ccccc1CCNCCCNCCCCNCCCNCCc1ccccc1C(F)(F)F [Compound 11] ?
result: 12.4 ± 2.1 number of fecal pellets
